Study target: T1, 4H3782-bA
T1 chain: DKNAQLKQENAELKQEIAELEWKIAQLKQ
Method notes: two-hybrid library CCNG1;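 note: natural log of median RNA to DNA barcode read ratio; higher means stronger binding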
Recorded endpoint: interaction score

Examples with answers:
{"Binder": "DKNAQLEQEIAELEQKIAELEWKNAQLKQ [4H3112-bA]", "interaction score": -0.731}
{"Binder": "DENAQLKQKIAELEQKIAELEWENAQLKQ [4H1828-bA]", "interaction score": 0.85}
{"Binder": "DKIAQLKQENAELEQKIAELKWEIAQLEQ [4H2729-bA]", "interaction score": 0.712}
{"Binder": "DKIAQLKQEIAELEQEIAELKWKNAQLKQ [4H2576-bA]", "interaction score": 0.345}
{"Binder": "DEIAQLEQKIAELKQENAELEWEIAQLKQ [4H338-bA]", "interaction score": -0.133}

I. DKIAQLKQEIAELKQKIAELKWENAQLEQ [4H2667-bA]
II. DENAQLEQKIAELEQKIAELKWKNAQLKQ [4H1328-bA]
# compare interaction score for I vs II ; return the one with the smaller value Answer by stating the label of the chosen item. I

a. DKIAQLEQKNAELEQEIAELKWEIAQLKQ [4H2442-bA]
b. DEIAQLEQKIAELKQEIAELKWENAQLEQ [4H331-bA]
Hi team, can someone confirm which has the larger interaction score: a or b ? Thanks. Indicate your choice by writing its label. b
